Give measured fold repression for each item. Keep answers brief.
Target: T1, ECF28_1088
T1 chain: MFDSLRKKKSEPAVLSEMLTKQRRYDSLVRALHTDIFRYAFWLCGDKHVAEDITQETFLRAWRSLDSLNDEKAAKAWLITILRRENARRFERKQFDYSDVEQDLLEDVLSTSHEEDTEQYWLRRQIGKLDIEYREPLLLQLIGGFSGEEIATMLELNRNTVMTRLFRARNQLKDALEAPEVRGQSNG
Answer field: number only, no words.

Please report the recorded fold repression for AS27_1331 (protein) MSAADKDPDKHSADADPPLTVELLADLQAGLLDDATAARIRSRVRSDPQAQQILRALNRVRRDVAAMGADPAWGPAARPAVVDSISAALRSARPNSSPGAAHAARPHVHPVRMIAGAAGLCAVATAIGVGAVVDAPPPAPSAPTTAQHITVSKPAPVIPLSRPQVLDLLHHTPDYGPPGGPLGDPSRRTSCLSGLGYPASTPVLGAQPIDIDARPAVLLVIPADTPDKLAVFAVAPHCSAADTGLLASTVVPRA . 1.37

Please report the recorded fold repression for AS35_3582 (protein) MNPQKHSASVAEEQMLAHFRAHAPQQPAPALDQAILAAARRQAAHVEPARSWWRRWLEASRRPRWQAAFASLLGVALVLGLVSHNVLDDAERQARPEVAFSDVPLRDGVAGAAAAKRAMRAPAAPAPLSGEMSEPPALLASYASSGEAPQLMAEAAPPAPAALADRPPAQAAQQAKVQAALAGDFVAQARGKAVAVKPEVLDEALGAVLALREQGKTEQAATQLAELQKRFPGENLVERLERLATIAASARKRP . 3.76

Please report the recorded fold repression for AS16_973 (protein) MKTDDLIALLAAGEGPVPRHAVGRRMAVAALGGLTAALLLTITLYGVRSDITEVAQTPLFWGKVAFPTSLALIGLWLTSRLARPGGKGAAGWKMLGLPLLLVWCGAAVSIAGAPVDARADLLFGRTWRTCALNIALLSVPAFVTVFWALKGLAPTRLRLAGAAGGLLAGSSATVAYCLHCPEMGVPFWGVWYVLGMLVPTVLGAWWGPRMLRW . 1.04

Cited source: paper PMC3817407
